Molecular target: HLA-A*02:01
Assay: IEDB peptide-MHC binding, purified MHC/competitive/radioactivity; filed as Kd, often an IC50 or EC50 that approximates it; bounds were set here for any values at or beyond the usual limits of such assays
Conditions: source organism: Homo sapiens
measurement-kind: Kd (µM)

Worked examples follow.
>>> df
         seq  value_observed
0  MLARACQHA            1.64
1  ALVARAAVL            11.1
2  ILLLEAGAL            4.76

(a) TILIGVFVV
(b) YLVLINCNS
(Q) Kindly identify the item with the lower Kd figure among these two: a and b Return value: the label identifying the chosen record.
(A) b
(b: 2.17 µM, a: 4.54 µM)

(a) YLILIMCNS
(b) NGMLIMCNA
(c) GLAANQTGA
(Q) Falling order of Kd, please. Returns: the labels listed in the requested order.
(A) b, a, c
(b: 16.7 µM, a: 6.25 µM, c: 2.38 µM)

(1) ILLGIFFLC
(2) LVLMAVLYV
(3) FLAMLVLMA
(Q) Sort low-to-high on Kd, please. Write the labels in rank order as requested.
(A) 2, 3, 1

(P) SVIDPLIYA
(Q) TILLGVFIF
(Q) # compare Kd for P vs Q ; return the one with the smaller value Use the label to indicate which entry you chose.
(A) P
(P: 1.19 µM, Q: 4.54 µM)
